Assay System: EGFR L858R/C797S (BaF3 LC cells) (Homo sapiens, UniProt P00533, C797S/L858R)
Construct: expressed in transfected cells; host or cells: BaF3
Sequence (P00533 25-1210 C797S/L858R): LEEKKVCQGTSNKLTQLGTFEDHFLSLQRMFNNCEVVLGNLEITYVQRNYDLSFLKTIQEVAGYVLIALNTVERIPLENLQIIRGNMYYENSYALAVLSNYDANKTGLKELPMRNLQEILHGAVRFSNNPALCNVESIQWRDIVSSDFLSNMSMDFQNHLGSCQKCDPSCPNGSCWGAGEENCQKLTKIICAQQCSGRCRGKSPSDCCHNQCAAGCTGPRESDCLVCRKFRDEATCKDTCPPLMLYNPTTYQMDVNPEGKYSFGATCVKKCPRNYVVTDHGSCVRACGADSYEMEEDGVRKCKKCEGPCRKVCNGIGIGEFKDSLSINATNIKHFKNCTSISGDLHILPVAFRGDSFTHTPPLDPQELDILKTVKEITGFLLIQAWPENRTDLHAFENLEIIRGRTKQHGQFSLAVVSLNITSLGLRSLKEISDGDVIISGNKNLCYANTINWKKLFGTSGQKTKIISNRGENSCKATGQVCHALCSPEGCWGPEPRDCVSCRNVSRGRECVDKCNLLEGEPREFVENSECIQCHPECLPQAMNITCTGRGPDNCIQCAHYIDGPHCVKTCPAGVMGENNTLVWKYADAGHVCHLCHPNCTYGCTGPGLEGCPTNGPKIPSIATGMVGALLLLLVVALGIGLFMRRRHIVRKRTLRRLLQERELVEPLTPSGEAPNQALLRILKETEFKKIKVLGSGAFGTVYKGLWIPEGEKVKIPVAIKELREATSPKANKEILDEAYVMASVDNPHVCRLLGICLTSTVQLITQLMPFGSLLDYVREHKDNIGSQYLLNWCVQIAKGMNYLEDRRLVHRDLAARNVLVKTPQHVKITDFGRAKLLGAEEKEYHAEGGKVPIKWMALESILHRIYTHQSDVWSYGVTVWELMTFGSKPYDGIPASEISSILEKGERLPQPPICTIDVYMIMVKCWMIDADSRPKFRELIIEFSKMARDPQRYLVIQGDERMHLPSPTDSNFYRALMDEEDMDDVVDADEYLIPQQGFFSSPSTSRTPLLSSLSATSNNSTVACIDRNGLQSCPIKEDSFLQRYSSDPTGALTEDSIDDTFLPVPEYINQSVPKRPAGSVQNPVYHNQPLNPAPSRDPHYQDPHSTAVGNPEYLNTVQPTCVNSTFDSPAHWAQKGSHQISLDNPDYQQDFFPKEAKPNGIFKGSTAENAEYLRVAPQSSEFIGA
Assay Details: EGFR degradation HTRF assay, BaF3 LC cells
Type: cell-based
Assay Conditions: BaF3 LC, 16h treatment; read-out: BaF3 LC DC50
Measurement Label: DC50 (nM)

{"Molecular String": "CCc1ncc2c(P(C)(C)=O)c(Nc3nc(Nc4cc(CC)c(N5CCC(N6CCN(CCc7cc(F)c([C@H]8CCC(=O)NC8=O)c(F)c7)CC6)CC5)cc4OC)ncc3Br)ccc2n1", "Assay System": "EGFR L858R/C797S (BaF3 LC cells) (Homo sapiens, UniProt P00533, C797S/L858R)", "DC50, nM": 20.3}
{"Molecular String": "CCc1cc(Nc2ncc(Br)c(Nc3ccc4c(=O)n(CC)ncc4c3P(C)(C)=O)n2)c(OC)cc1N1CCC(N2CCN(CCc3cc(F)c([C@H]4CCC(=O)NC4=O)c(F)c3)CC2)CC1", "Assay System": "EGFR L858R/C797S (BaF3 LC cells) (Homo sapiens, UniProt P00533, C797S/L858R)", "DC50, nM": 20.1}
{"Molecular String": "CCc1cc(Nc2ncc(Br)c(Nc3ccc4nc(C)ccc4c3P(C)(C)=O)n2)c(OC)cc1N1CCC(N2CCN(C(=O)[C@@H]3CCN(c4cc(F)c([C@H]5CCC(=O)NC5=O)c(F)c4)C3)CC2)CC1", "Assay System": "EGFR L858R/C797S (BaF3 LC cells) (Homo sapiens, UniProt P00533, C797S/L858R)", "DC50, nM": 26.1}

###

Assay System: EGFR L858R/T790M/C797S (BaF3-LTC cells) (Homo sapiens, UniProt P00533, C797S/L858R/T790M)
Construct: expressed in transfected cells; host or cells: BaF3
Sequence (P00533 25-1210 T790M/C797S/L858R): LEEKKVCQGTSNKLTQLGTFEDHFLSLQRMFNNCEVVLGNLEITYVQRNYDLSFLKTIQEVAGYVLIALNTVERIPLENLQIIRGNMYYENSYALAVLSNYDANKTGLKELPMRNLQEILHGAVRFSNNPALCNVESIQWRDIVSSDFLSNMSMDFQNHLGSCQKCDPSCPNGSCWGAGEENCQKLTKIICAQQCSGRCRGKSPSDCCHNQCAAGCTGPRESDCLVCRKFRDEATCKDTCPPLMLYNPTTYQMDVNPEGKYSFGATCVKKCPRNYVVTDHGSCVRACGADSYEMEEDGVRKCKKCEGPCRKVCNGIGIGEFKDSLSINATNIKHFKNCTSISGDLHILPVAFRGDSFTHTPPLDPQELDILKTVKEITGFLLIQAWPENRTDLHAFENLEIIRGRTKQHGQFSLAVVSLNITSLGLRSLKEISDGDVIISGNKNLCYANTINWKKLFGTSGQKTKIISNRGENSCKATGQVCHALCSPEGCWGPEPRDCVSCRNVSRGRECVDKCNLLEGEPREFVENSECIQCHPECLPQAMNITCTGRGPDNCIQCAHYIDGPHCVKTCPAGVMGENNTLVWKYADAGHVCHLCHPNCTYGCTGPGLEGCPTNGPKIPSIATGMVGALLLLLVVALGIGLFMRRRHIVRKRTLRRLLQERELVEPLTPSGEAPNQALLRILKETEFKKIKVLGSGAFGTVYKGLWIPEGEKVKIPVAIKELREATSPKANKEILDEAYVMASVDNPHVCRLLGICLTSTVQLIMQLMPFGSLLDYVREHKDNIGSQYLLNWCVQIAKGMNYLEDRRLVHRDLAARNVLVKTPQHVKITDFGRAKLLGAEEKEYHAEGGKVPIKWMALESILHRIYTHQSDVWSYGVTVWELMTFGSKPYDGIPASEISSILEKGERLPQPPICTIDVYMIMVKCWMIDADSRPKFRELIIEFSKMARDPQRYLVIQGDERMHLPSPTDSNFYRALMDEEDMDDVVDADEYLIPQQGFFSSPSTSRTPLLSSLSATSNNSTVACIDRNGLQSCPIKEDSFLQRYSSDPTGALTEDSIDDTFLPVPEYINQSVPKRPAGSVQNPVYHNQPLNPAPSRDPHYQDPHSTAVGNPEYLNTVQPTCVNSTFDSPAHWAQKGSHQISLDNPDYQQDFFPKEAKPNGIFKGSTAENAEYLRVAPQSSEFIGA
Assay Details: EGFR degradation HTRF assay, BaF3-LTC cells
Format: cell-based
Assay Conditions: BaF3-LTC, 16h treatment, maximum percentage of degradation; read-out: LTC Dmax (%)
Measurement Label: Dmax (%)

{"Molecule": "CCc1cc(Nc2ncc(Br)c(Nc3ccc4nc(C5CC5)ccc4c3P(C)(C)=O)n2)c(OC)cc1N1CCC(N2CCN(CCc3cc(F)c(C4CCC(=O)NC4=O)c(F)c3)CC2)CC1 (stereo not drawn)", "Dmax / %": 88.3}
{"Molecule": "CCc1cc(Nc2ncc(Br)c(Nc3ccc4nccnc4c3P(C)(C)=O)n2)c(OC)cc1N1CCC(N2C[C@@H](C)N(CC3CN(c4ccc5c(c4)C(=O)N(C4CCC(=O)NC4=O)C5=O)C3)[C@@H](C)C2)CC1 (stereo partly drawn)", "Dmax / %": 88.3}
{"Molecule": "CCc1cc(Nc2ncc(Br)c(Nc3ccc4nccnc4c3P(C)(C)=O)n2)c(OC)cc1N1CCC(N2CCN(C[C@H]3C[C@H](c4ccc(NC5CCC(=O)NC5=O)cc4)C3)CC2)CC1 (stereo partly drawn)", "Dmax / %": 75.5}

###

Assay System: EGFR L858R/T790M/C797S (BaF3-LTC cells) (Homo sapiens, UniProt P00533, C797S/L858R/T790M)
Construct: expressed in transfected cells; host or cells: BaF3
Assay Details: EGFR degradation HTRF assay, BaF3-LTC cells
Assay type: cell-based
Assay Conditions: BaF3-LTC cells; maximum percentage of inhibition (degradation); read-out: Dmax (%) BaF3-LTC
Measurement Label: Dmax (%)

{"Compound": "CCOc1cc(N2CCC(N3CCN(CC4CN(c5cc(F)c([C@H]6CCC(=O)NC6=O)c(F)c5)C4)CC3)CC2)c(CC)cc1Nc1ncc(Br)c(Nc2ccc3nc(CC)ncc3c2P(C)(C)=O)n1", "Dmax / %": 91.7}
{"Compound": "CCc1ccc2c(P(C)(C)=O)c(Nc3nc(Nc4cc(CC)c(N5CCC(N6CCN(CCc7cccc8c7n(C)c(=O)n8C7CCC(=O)NC7=O)CC6)CC5)cc4OC4CC4)ncc3Br)ccc2n1 (centres unmarked)", "Dmax / %": 96.2}
{"Compound": "CCOc1cc(N2CCC(N3CCN(CCc4ccc5c(c4)oc(=O)n5C4CCC(=O)NC4=O)CC3)CC2)c(CC)cc1Nc1ncc(Br)c(Nc2ccc3nc(CC)ccc3c2P(C)(C)=O)n1 (centres unmarked)", "Dmax / %": 92.6}
{"Compound": "CCc1cc(Nc2ncc(Br)c(Nc3ccc4nc(C)ccc4c3P(C)(C)=O)n2)c(OC)cc1N1CCC(N2CCN(C3CCN(c4cc(F)c(C5CCC(=O)NC5=O)c(F)c4)CC3)CC2)CC1 (centres unmarked)", "Dmax / %": 92.2}
{"Compound": "CCc1ccc2c(P(C)(C)=O)c(Nc3nc(Nc4cc(CC)c(N5CCC(N6CCN(CCc7cccc8c7oc(=O)n8C7CCC(=O)NC7=O)CC6)CC5)cc4OC)ncc3Br)ccc2n1 (centres unmarked)", "Dmax / %": 92.5}
